Test system: GB4
procedure_details: qHTS profiling for inhibitors of Plasmodium falciparum proliferation (AID 504749); also: nearly all actives have a fitted effect of over 60% in size
assay_context: P. falciparum in erythrocytes, SYBR Green DNA, 72 h; series mostly up to 28.7 µM
Inconclusive results are not listed. The source made the active and inactive calls. Calls follow the shape of the dose curve; as a rule, active = well fitted inhibition curve with a large enough effect; inconclusive = small, poorly fitted or top-dose-only effect; inactive = flat fitted curve, though single readings scatter. Peptide text beside a SMILES is read from it.
Outcome codes: t = active, f = inactive

>  <compound>
CC(N)C(=O)NCC(=O)NC1CSSCC(C(=O)O)NC(=O)C(CO)NC(=O)C(C(C)O)NC(=O)C(Cc2ccccc2)NC(=O)C(C(C)O)NC(=O)C(CCCCN)NC(=O)C(Cc2c[nH]c3ccccc23)NC(=O)C(Cc2ccccc2)NC(=O)C(Cc2ccccc2)NC(=O)C(CC(N)=O)NC(=O)C(CCCCN)NC1=O (centres undefined)

>  <test_target>
GB4

>  <class_label>
f

$$$$
>  <compound>
CC(C)C(NC(=O)C(CC(=O)O)NC(=O)C(CCCCN)NC(=O)C(N)CCCN=C(N)N)C(=O)NC(Cc1ccc(O)cc1)C(=O)O (centres undefined) (H-RKDVY-OH; configuration not given here)

>  <test_target>
GB4

>  <class_label>
f

$$$$
>  <compound>
O=C(OCC1OC(OC(=O)c2cc(O)c(O)c(OC(=O)c3cc(O)c(O)c(O)c3)c2)[C@@H](OC(=O)c2cc(O)c(O)c(OC(=O)c3cc(O)c(O)c(O)c3)c2)C(OC(=O)c2cc(O)c(O)c(OC(=O)c3cc(O)c(O)c(O)c3)c2)C1OC(=O)c1cc(O)c(O)c(OC(=O)c2cc(O)c(O)c(O)c2)c1)c1cc(O)c(O)c(OC(=O)c2cc(O)c(O)c(O)c2)c1 (some centres undefined)

>  <test_target>
GB4

>  <class_label>
t

$$$$
>  <compound>
CC(C)CC(NC(=O)C(COC(C)(C)C)NC(=O)C(Cc1ccc(O)cc1)NC(=O)C(CO)NC(=O)C(Cc1c[nH]c2ccccc12)NC(=O)C(Cc1cnc[nH]1)NC(=O)C1CCC(=O)N1)C(=O)NC(CCCN=C(N)N)C(=O)N1CCCC1C(=O)NNC(N)=O (centres undefined)

>  <test_target>
GB4

>  <class_label>
f

$$$$
